This collection of values is drawn from patent US5364885A.

- System: hamster flank organ hair growth
- PROTOCOL: Inhibition of hair growth: hamster flank organ hair mass after thirteen topical applications
- Format: in vivo, male intact Golden Syrian hamsters
- EXPERIMENTAL_SETUP: 20% by weight, 10-25 μl once a day, 13 applications, pH 7-8
Structures can show the parent of a compound that is named as a salt.
The reader will find reported Hamster Flank Organ Hair Mass, Treated (± SEM) values listed item by item below.
OBSERVABLE: Hamster Flank Organ Hair Mass, Treated (± SEM)

MOLECULE | RECORDED_MEASUREMENT
CC(C)(CO)[C@H](O)C(=O)NCCC(=O)[O-].[Na+] [PTAss, D-Pantothenic acid monosodium salt] | .500 ± .10 mg
CC(C)(CO)[C@@H](O)C(=O)NCCC(=O)O [PTA, DPantothenic acid hemicalcium salt] | .270 ± .12 mg
CC(C)(CO)C(O)C(=O)NCCCO (racemic) [DL-PTYA, D, or DL, Pantothenyl alcohol] | 1.450 ± .21 mg
CC(C)(CO)[C@@H](O)C(=O)NCCCO [D-PTYA, D, or DL, Pantothenyl alcohol] | .899 ± .30 mg
